Attribute: self-splicing fitness (ln)
- assay-text: self-splicing fitness, log relative to wild type (ln ratio); higher = more splicing; Tetrahymena group I intron in knt gene, E. coli kanamycin selection, DiMSum; sequences stand for … in CUCUCU…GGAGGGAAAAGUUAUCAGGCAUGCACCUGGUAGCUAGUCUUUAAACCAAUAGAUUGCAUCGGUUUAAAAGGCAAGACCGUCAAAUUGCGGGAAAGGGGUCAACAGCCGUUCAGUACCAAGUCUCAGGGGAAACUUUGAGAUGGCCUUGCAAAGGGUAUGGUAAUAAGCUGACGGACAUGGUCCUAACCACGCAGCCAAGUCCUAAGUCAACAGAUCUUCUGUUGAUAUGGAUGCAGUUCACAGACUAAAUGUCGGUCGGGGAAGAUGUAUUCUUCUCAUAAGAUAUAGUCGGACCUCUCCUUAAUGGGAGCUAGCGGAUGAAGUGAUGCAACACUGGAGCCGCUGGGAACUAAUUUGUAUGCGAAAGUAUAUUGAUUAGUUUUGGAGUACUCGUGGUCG;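 also: selection with 25 µg/mL kanamycin versus none on LB agar overnight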
- measurement-conditions: 37 °C
result-type: self-splicing fitness (ln)

>  <residue-codes>
AUCCAGCAAUAUUACGUAAA

>  <result>
-0.843

$$$$
>  <residue-codes>
GUGGAGCAAUAUUACGGUCA

>  <result>
-1.23

$$$$
>  <residue-codes>
CACCAGCAAUAUUACGAUUC

>  <result>
-2.32

$$$$
>  <residue-codes>
ACGAAGCAAUAUUACGCCUG

>  <result>
0.217

$$$$
>  <residue-codes>
AGGCAGCAAUAUUACGGUAA

>  <result>
-1.75

$$$$
>  <residue-codes>
GCUGAGCAAUAUUACGUUCG

>  <result>
-1.17

$$$$
>  <residue-codes>
CACGAGCAAUAUUACGCCAG

>  <result>
-2.95

$$$$
>  <residue-codes>
AUAAAGCAAUAUUACGUGAA

>  <result>
-0.724

$$$$
